Listed next: entries and their corresponding pIC50.
Molecular target: Mitogen-activated protein kinase 14 (Homo sapiens)
Sequence (Q16539 whole entry): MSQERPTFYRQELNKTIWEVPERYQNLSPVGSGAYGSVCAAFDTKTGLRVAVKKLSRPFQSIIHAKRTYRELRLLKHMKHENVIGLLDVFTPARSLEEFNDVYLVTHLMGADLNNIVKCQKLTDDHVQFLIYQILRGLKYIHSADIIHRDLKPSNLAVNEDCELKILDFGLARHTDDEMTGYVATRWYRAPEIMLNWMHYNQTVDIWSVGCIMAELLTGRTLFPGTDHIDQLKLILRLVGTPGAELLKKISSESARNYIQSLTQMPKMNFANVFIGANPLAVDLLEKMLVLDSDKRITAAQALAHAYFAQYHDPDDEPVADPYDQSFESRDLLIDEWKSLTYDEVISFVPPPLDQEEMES
Experiment: Inhibition of LPS stimulated TNF alpha release in whole blood
Assay type: functional, tissue-based
The read-out pIC50 is expressed as -log10 of concentration in moles per litre.

Solved entries (count: 5):
>  <molecule>
CC(C)(C)N1CCC(c2cc3c(ccc(=O)n3-c3c(Cl)cccc3Cl)c(-c3ccc(F)cc3F)n2)CC1

>  <assayed_system>
Mitogen-activated protein kinase 14 (Homo sapiens)

>  <pIC50>
8.28

$$$$
>  <molecule>
CC(C)(C)N1CCC(c2cc(-c3ccccc3Cl)c3ccc(=O)n(-c4c(Cl)cccc4Cl)c3c2)CC1

>  <assayed_system>
Mitogen-activated protein kinase 14 (Homo sapiens)

>  <pIC50>
8.19

$$$$
>  <molecule>
CC(C)(C)N1CCC(Oc2cc(-c3ccc(F)cc3Cl)c3ccc(=O)n(-c4c(Cl)cccc4Cl)c3c2)CC1

>  <assayed_system>
Mitogen-activated protein kinase 14 (Homo sapiens)

>  <pIC50>
7.79

$$$$
>  <molecule>
CN1C2CCC1CC(c1cc(-c3ccc(F)cc3Cl)c3ccc(=O)n(-c4c(Cl)cccc4Cl)c3c1)C2 (stereo unspecified)

>  <assayed_system>
Mitogen-activated protein kinase 14 (Homo sapiens)

>  <pIC50>
8.11

$$$$
>  <molecule>
O=c1ccc2c(-c3ccc(F)cc3Cl)cc(C3CC4CCC(C3)N4)cc2n1-c1c(Cl)cccc1Cl (stereo unspecified)

>  <assayed_system>
Mitogen-activated protein kinase 14 (Homo sapiens)

>  <pIC50>
7.84

$$$$

Read the next record carefully.
Missing value: pIC50, Mitogen-activated protein kinase 14 (Homo sapiens), entry CC(C)N1C2CCC1CC(c1cc(-c3ccc(F)cc3Cl)c3ccc(=O)n(-c4c(Cl)cccc4Cl)c3c1)C2 (stereo unspecified) . Fill in?
8.07

* * *

Biological target: Mitogen-activated protein kinase 14 (Homo sapiens)
Test: Inhibition of TNF alpha release in THP1 cells
Type: functional, cell-based, THP-1
Threshold check on IC50: strictly below 0.9 nM is Fulfilled; on or above 0.9 nM is Not fulfilled.

Here are 4 molecules together with their reported answers.
>  <molecule>
CC(C)(C)N1CCC(c2cc(-c3ccc(F)cc3F)c3ccc(=O)n(-c4c(Cl)cccc4Cl)c3c2)CC1

>  <assayed_system>
Mitogen-activated protein kinase 14 (Homo sapiens)

>  <class_name>
Not fulfilled

$$$$
>  <molecule>
CC(C)(C)N1CCC(c2cc3c(ccc(=O)n3-c3c(Cl)cccc3Cl)c(-c3ccc(F)cc3Cl)n2)CC1

>  <assayed_system>
Mitogen-activated protein kinase 14 (Homo sapiens)

>  <class_name>
Not fulfilled

$$$$
>  <molecule>
CC(C)(C)N1CCC(c2cc3c(ccc(=O)n3-c3c(Cl)cccc3Cl)c(-c3ccc(F)cc3F)n2)CC1

>  <assayed_system>
Mitogen-activated protein kinase 14 (Homo sapiens)

>  <class_name>
Fulfilled

$$$$
>  <molecule>
CN1C2CCC1CC(c1cc(-c3ccc(F)cc3Cl)c3ccc(=O)n(-c4c(Cl)cccc4Cl)c3c1)C2 (stereo unspecified)

>  <assayed_system>
Mitogen-activated protein kinase 14 (Homo sapiens)

>  <class_name>
Fulfilled

$$$$

Continue with the molecule presented below.
Report whether reported IC50 is lower than 0.9 nM (strictly) for CC(C)(C)N1CCC(c2cc(-c3ccccc3Cl)c3ccc(=O)n(-c4c(Cl)cccc4Cl)c3c2)CC1
Not fulfilled

Hello, the source for this data is ChEMBL document CHEMBL1148534, in case you need it.
